Below, each entry is listed alongside its reported TGI.
# System: DU-145 prostate
# EXPERIMENT DESCRIPTION: NCI tumour cell line growth inhibition, 48 h

In [3]: df
Out[3]:
                                   compound           target  property   reading
0  COC(=O)[C@H](Cc1ccccc1)NP(=O)(OCCC#N)OCC1OC(n2cc(C)c(=O)[nH]c2=O)CC1N=[N+]=[N-] (some centres not stated)  DU-145 prostate       TGI  > 100 µM

# next compound below
Challenge: Requested field: TGI. Item: `C=C(C)[C@@H]1CC[C@]2(C)CC[C@]3(C)[C@H](CC[C@@H]4[C@@]5(C)CC[C@H](O)C(C)(C)[C@@H]5CC[C@]43C)[C@@H]12`
Response given: > 100 µM

----------
# Test system: MOLT-4 leukemia
# EXPERIMENT DESCRIPTION: NCI tumour cell line growth inhibition, 48 h
Below, each entry is listed alongside its reported TGI.

The following molecules have reported results that may help.
In [3]: df
Out[3]:
                                   molecule   reading
0      C/C(=N\NC(=S)N1CC2CCC(CC2)C1)c1nccs1   20.7 µM
1  O=C(NNC(=S)Nc1ccccc1)c1cc(-c2ccccc2)nc2ccccc12   32.2 µM
2  Brc1ccc(C2CC(c3cccc4ccccc34)=Nc3ccccc3S2)cc1 (stereo not given)  > 100 µM

Challenge: Observed TGI on MOLT-4 leukemia for `CCc1cccc(C(C)(C)C)c1NC(=S)N/C=C(/C#N)C(N)=O` , please.
Response given: > 100 µM

Challenge: Observed TGI on MOLT-4 leukemia for C=C[C@@]1(C)CC[C@@H]2[C@@]3(C1)O[C@H]3CC1[C@](C)(C(=O)OC)CCC[C@@]12C (stereo not given in full) , please.
Response given: 42.2 µM

Challenge: Observed TGI on MOLT-4 leukemia for `O=c1c2ccccc2nc(-c2cc3c(cc2Cl)Sc2nccn2S3(=O)=O)n1-c1ccccc1` , please.
Response given: > 100 µM

Challenge: Observed TGI on MOLT-4 leukemia for C=C(CCOC)CCC1CCCCC(=C)[C@H]1OC(C)=O (stereo not given in full) , please.
Response given: > 100 µM

Challenge: Observed TGI on MOLT-4 leukemia for CCOC(=O)NC(Nc1ncccn1)(C(=O)OCC)C(F)(F)F (stereo not given) , please.
Response given: > 100 µM

Challenge: Observed TGI on MOLT-4 leukemia for `CN1CCC2(CC1)ONC1=NCCN12` , please.
Response given: > 100 µM

Challenge: Observed TGI on MOLT-4 leukemia for COc1ccc(C23C(=O)c4ccccc4N2O[C@H]2C(=O)N(c4ccccc4)C(=O)[C@H]23)cc1 (stereo not given in full) , please.
Response given: > 100 µM

----------
Below, each entry is listed alongside its reported TGI.
# Test system: T-47D breast
# EXPERIMENT DESCRIPTION: NCI tumour cell line growth inhibition, 48 h

MOLECULE	TGI
CN(C)CCCNC(=O)c1c(O)c2ccccc2[nH]c1=O	> 100 µM
CC(CC[C@@H](O)C(C)(C)O)C1[C@@H](O)CC2(C)C3CC(O)C4C(C)(C)[C@@H](OC5OC(CO)C(O)C(O)C5O)CC[C@@]45C[C@@]35CC[C@]12C (some centres undefined)	> 10 µM
CCN1C(=O)N(CC)C2C1NN=c1s/c(=C\c3cccc(F)c3)c(=O)n12 (centres undefined)	> 100 µM

# next molecule below
Challenge: Requested field: TGI. Item: C[C@]12C[C@H](CCCCCCNCCOC(=O)NCCCc3ccc(N(CCCl)CCCl)cc3)C3=C4CCC(=O)C=C4CCC3C1CC[C@@H]2O (some centres undefined)
Response given: 4.5 µM
